Items are presented alongside their recorded pIC50.
molecular target: PI3K-gamma (Homo sapiens, UniProt P48736); assay: PI3K-gamma fluorescence polarization assay; format: biochemical; details: PI3Kγ Avg. IC50
Sequence (P48736 whole entry, species assumed): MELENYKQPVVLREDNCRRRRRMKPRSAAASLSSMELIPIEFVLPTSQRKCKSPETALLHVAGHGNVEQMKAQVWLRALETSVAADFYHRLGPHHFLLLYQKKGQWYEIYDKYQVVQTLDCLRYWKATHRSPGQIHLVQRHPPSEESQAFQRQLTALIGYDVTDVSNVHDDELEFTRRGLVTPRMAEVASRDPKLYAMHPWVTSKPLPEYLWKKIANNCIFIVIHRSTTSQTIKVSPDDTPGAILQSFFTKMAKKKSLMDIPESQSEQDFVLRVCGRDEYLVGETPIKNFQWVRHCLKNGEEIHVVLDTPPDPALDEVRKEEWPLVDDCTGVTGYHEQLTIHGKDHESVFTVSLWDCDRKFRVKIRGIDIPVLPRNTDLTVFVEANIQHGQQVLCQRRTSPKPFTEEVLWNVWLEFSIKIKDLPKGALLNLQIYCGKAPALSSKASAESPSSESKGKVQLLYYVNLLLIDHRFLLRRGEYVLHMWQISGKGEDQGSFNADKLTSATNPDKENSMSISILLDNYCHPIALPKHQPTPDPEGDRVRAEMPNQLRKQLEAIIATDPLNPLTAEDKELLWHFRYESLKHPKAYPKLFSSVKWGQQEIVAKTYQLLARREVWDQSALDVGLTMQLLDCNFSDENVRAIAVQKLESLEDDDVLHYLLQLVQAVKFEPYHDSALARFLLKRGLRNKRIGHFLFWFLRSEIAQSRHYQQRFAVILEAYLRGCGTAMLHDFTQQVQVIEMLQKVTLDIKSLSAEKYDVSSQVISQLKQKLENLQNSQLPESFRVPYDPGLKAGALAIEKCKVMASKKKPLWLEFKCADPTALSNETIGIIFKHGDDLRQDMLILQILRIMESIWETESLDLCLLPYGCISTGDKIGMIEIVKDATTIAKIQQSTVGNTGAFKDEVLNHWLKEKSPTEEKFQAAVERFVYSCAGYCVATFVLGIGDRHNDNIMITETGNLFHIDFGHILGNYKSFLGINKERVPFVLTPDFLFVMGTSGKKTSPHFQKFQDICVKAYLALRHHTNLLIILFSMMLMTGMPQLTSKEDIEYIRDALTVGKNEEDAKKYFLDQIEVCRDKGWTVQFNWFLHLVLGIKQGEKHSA
pIC50: −log10 of the molar value.

mol | pIC50
COc1ccc(NC(=O)Nc2ccc3c(c2)C(=O)/C(=C/c2c[nH]c4ccc(OC)cc24)O3)cc1 | 5.88
CNC(=O)Nc1ccc2c(c1)C(=O)/C(=C/c1c(-c3c(C)nn(C)c3C)[nH]c3c(F)cc(OC)cc13)O2 | 8.29
COc1ccc2c(c1)c(/C=C1\Oc3cc(O)ccc3C1=O)c(C)n2CCN1CCC(C)CC1 | 6.21
COc1ccc2c(c1)c(/C=C1\Oc3cc(O)cc(O)c3C1=O)c(C(=O)N(C)C)n2CCN1CCN(C)CC1 | 6.56

Recorded values, source patent US20090311217A1.
